Numbers sourced from patent US20250368649A1.

Hi there, I'd appreciate the recorded IC50 for every entry that follows.
target: KRas G12V (Homo sapiens, UniProt P01116, G12V); assay: biochemical; conditions: Binding to KRas (IC50 nM) G12V, TR-FRET displacement, KRas G12V
Sequence (P01116 1-169 isoform P01116-2 G12V): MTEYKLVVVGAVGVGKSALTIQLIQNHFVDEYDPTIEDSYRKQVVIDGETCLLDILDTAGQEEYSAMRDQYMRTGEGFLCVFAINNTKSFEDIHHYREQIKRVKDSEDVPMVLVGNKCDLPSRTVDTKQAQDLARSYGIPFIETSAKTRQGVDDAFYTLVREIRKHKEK
Provide the reading as a plain figure in nM.

[in] Report IC50, nothing else, for this compound: CCc1c(F)ccc2cc(O)cc(N3CCc4c(nc(OC[C@@]56CCCN5C[C@H](F)C6)nc4N4CCCCC(C(=O)N(C)C)C4)C3)c12 (stereo partly drawn)
[out] 7

[in] Report IC50, nothing else, for this compound: CCc1cccc2cccc(N3CCc4c(nc(OCC5(CN(C)C)CC5)nc4NCc4ccnn4CC(F)F)C3)c12
[out] 5850

[in] Report IC50, nothing else, for this compound: CCc1c(F)ccc2cc(O)cc(N3CCc4c(nc(OC[C@@]56CCCN5C[C@H](F)C6)nc4N4CCCn5nc(CN(C)S(=O)(=O)NC)cc5C4)C3)c12
[out] 13

[in] Report IC50, nothing else, for this compound: CCc1c(F)ccc2cc(O)cc(N3CCc4c(nc(OC[C@@]56CCCN5C[C@H](F)C6)nc4N4CCCCC(COCC(=O)NC)C4)C3)c12 (stereo partly drawn)
[out] 8

[in] Report IC50, nothing else, for this compound: CCc1cccc2cccc(N3CCc4c(nc(OCC5(CN(C)C)CC5)nc4N4CCCOC(CCO)C4)C3)c12 (stereo not drawn)
[out] 346

[in] Report IC50, nothing else, for this compound: CCc1c(F)ccc2cc(O)cc(N3CCc4c(nc(OCC5(CN(C)C)CC5)nc4N4CCCC(n5ccc(C)n5)C4)C3)c12 (stereo not drawn)
[out] 25

[in] Report IC50, nothing else, for this compound: CCc1cccc2cccc(N3CCc4c(nc(OCC5(CN(C)C)CC5)nc4N4CCCC(c5ccn(C)n5)C4)C3)c12 (stereo not drawn)
[out] 4310

[in] Report IC50, nothing else, for this compound: CCc1cccc2cccc(N3CCc4c(nc(OCC5(CN(C)C)CC5)nc4N4CCCn5nc(CO)cc5C4)C3)c12
[out] 437

[in] Report IC50, nothing else, for this compound: CCc1cccc2cccc(N3CCc4c(nc(OCC5(CN(C)C)CC5)nc4N4CCCC(c5nc(=O)[nH][nH]5)C4)C3)c12 (stereo not drawn)
[out] 1360

[in] Report IC50, nothing else, for this compound: CCc1cccc2cccc(N3CCc4c(nc(OCC5(CN(C)C)CC5)nc4N4CCN(C(=O)c5c[nH]c(=O)[nH]5)CC4)C3)c12
[out] 3020

[in] Report IC50, nothing else, for this compound: CCc1c(F)ccc2cc(O)cc(N3CCc4c(nc(OC[C@@]56CCCN5C[C@H](F)C6)nc4N4CCCC5(C4)NC(=O)NC5=S)C3)c12 (stereo partly drawn)
[out] 10

[in] Report IC50, nothing else, for this compound: CCc1c(F)ccc2cc(O)cc(N3CCc4c(nc(OC[C@@]56CCCN5C[C@H](F)C6)nc4N4CCCn5nc(CNC(C)=O)cc5C4)C3)c12
[out] 3
